System: Pim-1 kinase (Homo sapiens, UniProt P11309) | Read-out: IC50
Sequence (P11309 whole entry): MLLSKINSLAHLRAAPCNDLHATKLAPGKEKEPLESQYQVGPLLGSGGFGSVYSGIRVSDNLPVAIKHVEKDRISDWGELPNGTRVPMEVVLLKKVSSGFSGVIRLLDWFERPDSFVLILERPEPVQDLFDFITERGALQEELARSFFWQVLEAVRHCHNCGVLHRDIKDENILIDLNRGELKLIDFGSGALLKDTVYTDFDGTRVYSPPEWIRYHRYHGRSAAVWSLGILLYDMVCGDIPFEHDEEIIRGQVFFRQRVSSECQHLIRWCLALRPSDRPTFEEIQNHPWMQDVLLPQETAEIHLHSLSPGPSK

| compound | IC50 |
| --- | --- |
| O=c1c(O)c(-c2ccccc2)oc2ccccc12 [Compound 4, 3-Hydroxyflavone] | 35.1 µM |
| O=c1cc(-c2ccccc2)oc2cc(O)c(O)c(O)c12 | 5.65 µM |
| O=c1cc(-c2ccc(O)c(O)c2)oc2cc(O)cc(O)c12 | 4.63 µM |
